assayOverview: yeast display, Sf9 membrane polyspecificity reagent, FACS + sequencing; frameworks hold sequencing errors
experimentalReadout: polyreactivity (PSR sort gate)

Worked examples follow.
QVQLVESGGGLVQAGGRLRISFAATGITSGRYAMGGYRQAPGNERELVAAISNSGGSTYYADSVKGRFTISRDNAKNTVYLQMNSLKPEDTAVYYCAARSASSRMDYWGQGTQVTVSS: high polyreactivity
QVQLVESGGGLVQAGGSLRLSCAASGSTFLGYTMGWYRQAPGKERELVASITNSGSTDYADSVKGRFTISRDNAKNTVYLHMNSLKPEDTAVYYCAAQFYRYPSKNDYWGQGTQVTVSS: high polyreactivity
QVQLVESGGGLVQAGGSLRLSCAASGYTFQYNSMGWYRQAHGKERELVATISNRGTSTYYADSVKGRFTISRDNAKKTVYLQMNSLKPEDTAVYYCAKSRWSLYSSGVWSRRHFYYWGHGTQVTVSS: high polyreactivity
QVQLVESGGGLVQAGGSLRLSCAASGRTFGGYTMGWYRKAPGKERELVAAISKRGGSTYYADSVKGRFTISRDNAKNTVYLQMNSLKPEDTAVYYCARDVRTVIVSTGYDYWGQGTQVTVSS: high polyreactivity
QVQLVESGGGLVQAGGSLRLSCAASGRIFGFNTMGWYRQAPGKERELVAAISRNGGSTYYADSVKGRFTISRDNAKNTVYLEMNSLKPEDTAVYYCAKRWYPYSYDYWGQGTQVTVSS: high polyreactivity
PVQLVESGGGLVQAGGSLSLTCAASGFIFYDYAMRWYRPAPGKERELVAGITSSGTSTYYADSVKGRFTISRDNAKNTVYLQMNSLKPEDTSVYYFNKAPSWWDVRVPFDYWGQGTQVTVSS: low polyreactivity
QVQLVESGGGLVQAGGSLRLSCADSRSTFYIYAMGWYRQAPGKERELVAAIRRSGGSTYYADSVKGRFTISRDNAKNTVYLQMISLKPEDTAVYYCATRYLWRPRPYDYWGQGTQVTVSS: high polyreactivity
QVQLVESGGGLVQAGGSLRLSCAASGFTLDWYVMGWYRQAPGKDRELVAAISSSGGRTYYADSVKGRFTISRDNAKNTVYLQMNSLKPEDTAVYYCAARNKYGGYPYGYDYWGQGTQVTVSS: high polyreactivity

--- query ---
Bench note: what polyreactivity (PSR sort gate) did QVQLVESGGGLVQAGGSLRLSCAATGSIFRRYAMGWYGQAPGKERELVAAISWSGGSTYYADSVKGRFTISRDNAKNTVYLQMNSLKPEDTAVYYCAARHRQQKLDYWGQGTQVTVSS show?
high polyreactivity

====

assayOverview: yeast display, Sf9 membrane polyspecificity reagent, FACS + sequencing; frameworks hold sequencing errors
experimentalReadout: polyreactivity (PSR sort gate)

Worked examples follow.
QVQLVESGGGLVQAGGSLRLSCAASGNTFTWYTIGWYRQAPGKERELVAVITSDGSKYYADSVKGRFTISRDNAKNTFYLQMNSLKPEVTAVYYCTVGGGTNYGYGYWYGFYYWGQGTQVTVYS: low polyreactivity
QVHLVESGGGLVQAGGSLRLTCAASGSILAYNAMGWYRQAPGKERELVAAIRLSGGSTYYADSVKGRFTISRDNAKNTVYLQMNSLKPEDTAVYYCARRYYRYDTRKYNYWGQGTKVTVSS: high polyreactivity
QVQLVESGGGLVQAGGSLRLSCAASGRILDWYAMGWYRQAPGTERELVASIYSTGGSSYYADSVKGRFTISRDHAKNTVYLQMNRLKPDDTAVYYCAAVIRSQDGRGYDYWGHGTQVTVSS: high polyreactivity
QVQLVESGGGLVQAGGSLRLSCAASGSTFWYYVMGWYRQAPGKERELVAAISTRGDSTYYADSVKGRFTISRDNAKNTVYLQMNSLKPEETAVYYCAKYRQSSGRVRFDYWGQGTQVTVSS: low polyreactivity
QVQLVESGGGLVQAGGSLRLSCAASGSIFTHNAMGWYRQAPGNERELVAAISSGGSTNYADSVKGRFTISRDNAKNTVYLQMNSLKPEDTAVYYCAKSIDGWYWRRRRYDYWGQGTQVTVSS: low polyreactivity

--- query ---
Bench note: what polyreactivity (PSR sort gate) did QVQLVESWGVLVQAGGSLRLSCAASGSIIVNYDMGWYRQARGKERELVAAITWGGGRTYYADSVKRRFTISRDNAKNSVYLQMNSLKPEDTAVYYCAADFSWVINPYEYCGQGTQVTVSS show?
low polyreactivity
